// merged dataset of Kd values, system = Receptor-type tyrosine-protein kinase FLT3 (Homo sapiens), multiple refs
EXPERIMENTAL_ENDPOINT: Kd

> print(dat)
                               record.smiles                               system.name  experimental.endpoint      result.value
 1  CC(C)(C)c1cc(NC(=O)Cc2ccc(-c3cnc(N)c(S(=O)(=O)C(C)(C)C)c3)cc2)no1  Receptor-type tyrosine-protein kinase FLT3 (Homo sapiens)                     Kd            ≤ 1 nM
 2  CC(F)(F)C1(c2cc(NC(=O)Cc3ccc(-c4ccc(N)nc4F)cc3)no2)CC1  Receptor-type tyrosine-protein kinase FLT3 (Homo sapiens)                     Kd        1 to 10 nM
 3  CC(=O)OCC1(c2cc(NC(=O)Cc3ccc(-c4ccc(N)nc4)cc3)no2)CC1  Receptor-type tyrosine-protein kinase FLT3 (Homo sapiens)                     Kd            ≤ 1 nM
 4  CC(C)(C)Nc1ncc(-c2ccc(NC(=O)Nc3cc(C(C)(C)C)on3)nc2)cn1  Receptor-type tyrosine-protein kinase FLT3 (Homo sapiens)                     Kd        1 to 10 nM
 5  Cn1cc(-c2cn3c(-c4cccc(N[C@H]5CNC[C@@H]5F)n4)cnc3cn2)cn1  Receptor-type tyrosine-protein kinase FLT3 (Homo sapiens)                     Kd          0.035 nM
 6  CCN(CC)CCNC(=O)c1ccc(NC(=O)Nc2cc(C(C)(C)C)on2)cc1  Receptor-type tyrosine-protein kinase FLT3 (Homo sapiens)                     Kd        > 10000 nM
 7  COc1cc2c(Nc3cc(C(C)C)[nH]n3)nc(N3CCC(F)(F)CC3)nc2cc1OCCCN1CCCC1  Receptor-type tyrosine-protein kinase FLT3 (Homo sapiens)                     Kd   1000 to 5000 nM
 8  CC1(c2cc(NC(=O)Cc3ccc(-c4ccc(NCCS(C)(=O)=O)nc4)cc3)no2)CC1  Receptor-type tyrosine-protein kinase FLT3 (Homo sapiens)                     Kd            ≤ 1 nM
 9  Cc1ccc(F)c(NC(=O)Nc2ccc(-c3cnc(NCCN4CCOCC4)nc3)cc2)c1  Receptor-type tyrosine-protein kinase FLT3 (Homo sapiens)                     Kd        1 to 10 nM
10  CC(C)(F)c1cc(NC(=O)Nc2ccc(-c3ccc(N)nc3)cn2)on1  Receptor-type tyrosine-protein kinase FLT3 (Homo sapiens)                     Kd        1 to 10 nM
11  CCOc1ccc(-c2cc3c(Sc4ccccc4)ncnc3n2CC)cc1  Receptor-type tyrosine-protein kinase FLT3 (Homo sapiens)                     Kd    100 to 1000 nM
12  CC(C)c1cc(NC(=O)Cc2ccc(-c3ccc(N)nc3)cc2)no1  Receptor-type tyrosine-protein kinase FLT3 (Homo sapiens)                     Kd            ≤ 1 nM
13  CC(C)(C)c1cc(NC(=O)Nc2ccc(-c3cnc(OCCN4CCOCC4)nc3)cc2)no1  Receptor-type tyrosine-protein kinase FLT3 (Homo sapiens)                     Kd        1 to 10 nM
14  FC(F)c1cn2c(-c3cccc(N[C@H]4CNC[C@@H]4F)n3)cnc2cn1  Receptor-type tyrosine-protein kinase FLT3 (Homo sapiens)                     Kd           0.42 nM
15  Cn1[nH]c2ncc(-c3ccc(CC(=O)Nc4cc(C(C)(C)C)on4)cc3)cc2c1=O  Receptor-type tyrosine-protein kinase FLT3 (Homo sapiens)                     Kd        1 to 10 nM
16  Cc1ccc(Sc2ncnc3c2cc(-c2ccc(OC(C)C)cc2)n3C(C)C)cc1  Receptor-type tyrosine-protein kinase FLT3 (Homo sapiens)                     Kd  1000 to 10000 nM
17  Cc1nc(N)ccc1-c1ccc(NC(=O)Nc2cc(C(C)(C)C)on2)cc1  Receptor-type tyrosine-protein kinase FLT3 (Homo sapiens)                     Kd            ≤ 1 nM
18  CC(C)(C)c1cc(NC(=O)Nc2ccc(-c3cnc(N)c(C#N)c3)cc2)no1  Receptor-type tyrosine-protein kinase FLT3 (Homo sapiens)                     Kd            ≤ 1 nM
19  CC1(c2cc(NC(=O)Cc3ccc(-c4cnc(N)cc4Cl)cc3)no2)CC1  Receptor-type tyrosine-protein kinase FLT3 (Homo sapiens)                     Kd            ≤ 1 nM
20  CC1(c2cc(NC(=O)Cc3ccc(-c4cnc(N)c(Cl)c4)cc3)no2)CC1  Receptor-type tyrosine-protein kinase FLT3 (Homo sapiens)                     Kd            ≤ 1 nM
21  COc1cccc(-c2cc3c(Nc4cccc(O)c4)ncnc3[nH]2)c1  Receptor-type tyrosine-protein kinase FLT3 (Homo sapiens)                     Kd    100 to 1000 nM
22  CC(C)(C)c1cc(NC(=O)Cc2ccc(-c3cnc(N)nc3)cc2F)no1  Receptor-type tyrosine-protein kinase FLT3 (Homo sapiens)                     Kd            ≤ 1 nM
23    COc1ccc(-c2cc3c(Sc4ccccc4)ncnc3n2C)cc1  Receptor-type tyrosine-protein kinase FLT3 (Homo sapiens)                     Kd    100 to 1000 nM
24  CC(C)(C)c1cc(NC(=O)Nc2ccc(-c3ccc(N)nc3)cn2)no1  Receptor-type tyrosine-protein kinase FLT3 (Homo sapiens)                     Kd            ≤ 1 nM
25  CN(C(=O)Nc1cc(C(C)(C)C)on1)c1ccc(-c2ccc(N)nc2)cc1  Receptor-type tyrosine-protein kinase FLT3 (Homo sapiens)                     Kd            ≤ 1 nM
26  COc1ccc(N(C)C(=O)N(C)c2cc(C(C)(C)C)no2)cc1  Receptor-type tyrosine-protein kinase FLT3 (Homo sapiens)                     Kd        > 10000 nM
27  CN1C(C)(C)CC(=CCNc2ccc(-c3ccc(CC(=O)Nc4cc(C(C)(C)C)on4)cc3)cn2)CC1(C)C  Receptor-type tyrosine-protein kinase FLT3 (Homo sapiens)                     Kd            ≤ 1 nM
28  Cc1cc(-c2ccc(CC(=O)Nc3cc(C4(C)CC4)on3)cc2)cnc1N  Receptor-type tyrosine-protein kinase FLT3 (Homo sapiens)                     Kd            ≤ 1 nM
29  CC(C)Nc1ncc(-c2ccc(NC(=O)Nc3cc(C(C)(C)C)on3)nc2)cn1  Receptor-type tyrosine-protein kinase FLT3 (Homo sapiens)                     Kd            ≤ 1 nM
30  CC(C)(C)c1cc(NC(=S)Nc2ccc(N3CCOCC3)cc2)no1  Receptor-type tyrosine-protein kinase FLT3 (Homo sapiens)                     Kd        > 10000 nM
31  Nc1ccc(-c2ccc(CC(=O)Nc3cc(C4(C(F)F)CC4)on3)cc2)cn1  Receptor-type tyrosine-protein kinase FLT3 (Homo sapiens)                     Kd            ≤ 1 nM
32  CC(C)(C)c1cc(NC(=O)Nc2ccc(-c3ccc(N)nc3)cc2Cl)no1  Receptor-type tyrosine-protein kinase FLT3 (Homo sapiens)                     Kd        1 to 10 nM
33  CC(C)(CO)c1cc(NC(=O)Nc2ccc(-c3ccc(N)nc3)cc2)no1  Receptor-type tyrosine-protein kinase FLT3 (Homo sapiens)                     Kd            ≤ 1 nM
34  CC(C)(F)c1cc(NC(=O)Cc2ccc(-c3ccc(NCCN4CCOCC4)nc3)cc2)on1  Receptor-type tyrosine-protein kinase FLT3 (Homo sapiens)                     Kd            ≤ 1 nM
